- System: KM12 colon
- experimentSummary: NCI-60 one-dose screen, 48 h (100 = growth as untreated, 0 = no growth, -100 = all killed)
- conditionsUsed: 10 µM unless noted
Compounds without any hit were thinned out: in the full panel of roughly 83,000, 20% have a hit.
Each entry gets Not satisfied if its growth stays under 70%, and Satisfied if its growth is 70% or above.

{"molecule": "Cc1cc(C)c(C#N)c(SCC(=O)c2sc3c(C#N)c(C)cc(C)[n+]3c2[O-])n1", "labelClass": "Not satisfied"}
{"molecule": "NC(=O)Nc1ccc2ncnc(Nc3cccc(O)c3)c2c1", "labelClass": "Satisfied"}
{"molecule": "COc1cc(-c2n/c(=C\\c3c(O)[nH]c4cc(Cl)ccc34)cc3c2=Nc2ccccc2-3)cc(OC)c1OC", "labelClass": "Not satisfied"}
{"molecule": "O=c1[nH]c2ccccc2n2cc3cccnc3c12", "labelClass": "Not satisfied"}
{"molecule": "CNCCCNc1ccnc2cc(Cl)ccc12", "labelClass": "Not satisfied"}
{"molecule": "CN(C)CCOc1nc2c3cccnc3cc(-c3cccc(Cl)c3)c2c2ncccc12", "labelClass": "Not satisfied"}
{"molecule": "Cc1cc(C)c2c(n1)sc1c(Nc3ccc(Cl)cc3Cl)ncnc12", "labelClass": "Not satisfied"}
{"molecule": "COC(=O)c1cc(Cl)cc([N+](=O)[O-])c1O", "labelClass": "Satisfied"}
{"molecule": "O=C(CS)OCC(COC(=O)CS)(COC(=O)CS)COC(=O)CS", "labelClass": "Not satisfied"}
{"molecule": "CCN(CC)CCNc1c(C)cc(CO)c(Cl)c1C", "labelClass": "Satisfied"}

====

- System: UO-31 renal
- experimentSummary: NCI-60 one-dose screen, 48 h
- conditionsUsed: 10 µM unless noted
This is part of a sample that, as a whole, favours compounds with a hit. Of some 83,000 tested, about 20% had one in any assay. Active and inactive are the calls of the source. Rule for the calls: active = growth percent below 10; inactive = the rest.
Outcome codes: yes (active), no (inactive)

{"compound": "O=C(N=Nc1c(Cl)c(O)c2ccccc2c1O)C(=O)Nc1cccc(C(F)(F)F)c1", "labelClass": "no"}
{"compound": "CN1CCN(Cc2ccc(NC(=O)c3cccc(C#Cc4cnc(N)c5ncccc45)c3F)cc2C(F)(F)F)CC1", "labelClass": "yes"}
{"compound": "Cc1cc(C)c2c(NC(=O)Nc3ccc(Cl)c(Cl)c3)n[nH]c2n1", "labelClass": "no"}
{"compound": "C=CC[C@]1(O)CC[C@H]2[C@@H]3CCc4cc(O)ccc4[C@H]3CC[C@@]21C", "labelClass": "no"}
{"compound": "C=C1NC(=O)C(C(C)CC)NC(=O)C2CSCC(NC(=O)CCC(=O)O)C(=O)NC(Cc3ccccc3)C(=O)NC(C)C(=O)NC(CC(C)CC)C(=O)NC(C(=O)NC(Cc3ccccc3)C(=O)N3CCCC3C(=O)N2)C(C)OC(=O)C(CO)NC(=O)C(C(O)COC)N(C)C(=O)C(C(C)C)NC(=O)C(CC(C)CC)NC1=O (stereo unspecified)", "labelClass": "no"}
{"compound": "CO[C@@]12[C@@H]3NC3CN1C1=C(C(=O)C(N)=C(C)C1=O)[C@@H]2COC(N)=O (stereo partly specified)", "labelClass": "yes"}
{"compound": "Fc1ccc2nc(-c3ccc(-c4noc(-c5ccc(Cl)cc5)n4)cc3)[nH]c2c1", "labelClass": "no"}
{"compound": "COc1cc2c(cc1OCCCOc1cc3c(cc1OC)C(=O)N1CCC[C@H]1C=N3)C=CC(C)(C)O2", "labelClass": "no"}
{"compound": "C#CC[C@@H]1C[C@]2(C)[C@H]3CC=C4[C@H]5[C@@H](C)[C@H](C)CC[C@]5(C(=O)NCCCCN)CC[C@@]4(C)[C@]3(C)CC[C@H]2C(C)(C)[C@H]1OC(C)=O", "labelClass": "no"}
{"compound": "Cc1cc(C)c2c(n1)sc1c(Nc3ccc(Cl)cc3Cl)ncnc12", "labelClass": "yes"}
{"compound": "CCc1oc2ccccc2c1C(=O)c1cc(I)c(O)c(I)c1", "labelClass": "no"}
{"compound": "Cc1ccc(NC(=O)c2nc(S(C)(=O)=O)oc2-c2ccc(F)cc2)cc1Nc1ccc2ncn(C)c(=O)c2c1", "labelClass": "no"}
{"compound": "COc1ccc(C2C3=C(COC3=O)N(CCO)c3cc(OC)c(OC)cc32)cc1 (stereo unspecified)", "labelClass": "no"}
{"compound": "NC(=S)N/N=C(/c1cccs1)C1CC1", "labelClass": "no"}
{"compound": "Cc1cc(N=Nc2ccc(-c3ccc(N=Nc4ccc(O)c(C(=O)O)c4)cc3)cc2)c(N)c(N=Nc2ccc(C(=O)O)cc2)c1N", "labelClass": "no"}
{"compound": "Cc1n(Cc2ccc3ccccc3n2)cc[n+]1Cc1ccc2ccccc2n1", "labelClass": "no"}
{"compound": "Cn1nc(C(F)(F)F)cc1-c1cc(Cl)c(OCc2ccc(Cl)cc2)c(-c2ccc(Cl)c(C(F)(F)F)c2)c1O", "labelClass": "yes"}
{"compound": "C#CC[C@@H]1C[C@]2(C)[C@H]3CC=C4[C@H]5CC(C)(C)CC[C@]5(C(=O)NCCCCN)CC[C@@]4(C)[C@]3(C)CC[C@H]2C(C)(C)[C@H]1OC(C)=O", "labelClass": "yes"}
{"compound": "CN1CCN(c2ccc(N3Cc4ccccc4OC4=C3C(=O)c3c(O)ccc(O)c3C4=O)cn2)CC1", "labelClass": "yes"}
{"compound": "Nc1c(C(=O)c2ccc(Br)cc2)sc2nc3c(cc12)CCCC3", "labelClass": "no"}
{"compound": "CCCCCNCCCCCNc1cc(OC)cc2cccnc12", "labelClass": "no"}
{"compound": "Fc1ccc(-c2nnc(N3CCOCC3)c3ccccc23)cc1", "labelClass": "no"}
{"compound": "COc1ccc(/C=C(/C(=O)N2CCN(c3ccccc3)CC2)c2cc(OC)c(OC)c(OC)c2)cc1N", "labelClass": "no"}
{"compound": "CC(=O)N(C)c1ccc(Nc2cc(C)[nH]c3ccc4ncnc4c23)cc1", "labelClass": "no"}
{"compound": "C=CCn1c(SCC(=O)Nc2ccc(/C(C)=N\\O)cc2)nnc1-c1cc(-c2ccccc2)nc2ccccc12", "labelClass": "no"}
{"compound": "O=[N+]([O-])c1ccccc1CN1CCCCC1", "labelClass": "no"}
{"compound": "CNCc1cccc2c1OCCOCCOCCC(C)S(=O)(=O)c1ccc(cc1)-c1cnc(N)c(n1)C(=O)N2 (stereo unspecified)", "labelClass": "no"}
{"compound": "COc1ccc(NC(=O)C2c3ccccc3C(=O)N(CC(C)C)C2c2cccs2)cc1 (stereo unspecified)", "labelClass": "no"}
{"compound": "CCN(CC)CCNc1c(C)cc(CO)c(Cl)c1C", "labelClass": "no"}
{"compound": "CSCCC1NC(=O)C(C(C)=Nc2ccccc2)=C1O (stereo unspecified)", "labelClass": "no"}
{"compound": "FC1(F)CCN(Cc2c[nH]c3cc(Cl)ccc23)C[C@H]1CCc1ccccc1", "labelClass": "no"}
{"compound": "C/C(=N\\OC(=O)Nc1ccccc1)c1ccccc1", "labelClass": "no"}
{"compound": "Cc1ccc2nc(CN(CCN(Cc3nc4ccc(C)cc4[nH]3)Cc3nc4ccc(C)cc4[nH]3)Cc3nc4ccc(C)cc4[nH]3)[nH]c2c1", "labelClass": "yes"}
{"compound": "Cc1cc(C#Cc2ccccc2)ccc1-n1c(/C=C/c2ccc(F)cc2)nc2ccccc2c1=O", "labelClass": "no"}
{"compound": "COc1ccc(NC(=O)/C=C/c2ccc(Cl)c(Cl)c2)cn1", "labelClass": "no"}
{"compound": "O=C(Nc1ccc(Oc2ccc(Nc3nc4ccccc4s3)cc2)cc1)Nc1ccc(Cl)c(C(F)(F)F)c1", "labelClass": "no"}
